system: JAK2(JH1domain-catalytic); details: concentration: 1 μM,replicates: in singlicate; n = 1;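 note: KINOMEscan kinase panel screen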
Please use 1 whenever %Inh is not below 20%, and 0 whenever it is.

INSERT INTO results (compound, system_name, answer_label) VALUES
  ('CNC(=O)c1ccccc1Nc1nc(Nc2cccc(CS(C)(=O)=O)c2)ncc1C.O=CO [GSK1520489]', 'JAK2(JH1domain-catalytic)', 1),
  ('COC(=O)c1cccc(NC(=O)NC2CCN(c3ccnc(NCc4ccc(F)cc4)n3)CC2)c1 [GSK1379860]', 'JAK2(JH1domain-catalytic)', 0),
  ('COc1cccc(C2=C(Nc3cccc(Cl)c3)C(=O)NC2=O)c1 [SB-341556]', 'JAK2(JH1domain-catalytic)', 1);

Task: Quick check: does O=C(NCC1CC1)c1ccc(-c2cc(C(=O)NC3CC3)ccc2F)cc1 [GW810445] have %Inh greater than or equal to 20%?
Result: 0

Task: Quick check: does Nc1nccc(-c2ccc3c(N)n[nH]c3c2)n1 [GSK1034945] have %Inh greater than or equal to 20%?
Result: 0

Task: Quick check: does O=C(Nc1ccc(Oc2ccc3nc(NC(=O)C4CC4)cn3n2)c(F)c1)c1cccn(-c2ccccc2)c1=O have %Inh greater than or equal to 20%?
Result: 0

----------
tested on: CDK4-cyclinD3; conditions: concentration: 1 μM,replicates: in singlicate; n = 1
Parameter %Inh: see the listing below.
Entry rule: numbers only, all in %.

INSERT INTO assay_data (molecule, unit_annotation, reported_value) VALUES
  ('COc1cc(Nc2nccc(N3CCC(NC(=O)c4cccc(C#N)c4)C3)n2)cc(OC)c1OC (stereo not shown) [GSK1379751]', '%', 0),
  ('COc1cc2c(Nc3ccc(NC(=O)c4ccccc4)cc3)ncnc2cc1OCCCN1CCOCC1 [GSK301329]', '%', 0),
  ('CC(C(=O)NC1CCN(c2ccnc(Nc3ccc(F)cc3)n2)C1)c1ccc(Cl)cc1 (stereo not shown) [GSK1379713]', '%', 0),
  ('Cc1ccc(Nc2ccnc(Nc3ccc4c(c3)CS(=O)(=O)C4)n2)cc1O.Cl [GW579362]', '%', 73),
  ('Cn1ccc2ncnc(Oc3ccc(NC(=O)Nc4cnn(C(C)(C)C)c4)c(Cl)c3)c21', '%', 0);

Now for a further molecule.
Task: Identify measured %Inh associated with Cn1ccc2ncnc(Oc3ccc(NC(=O)Nc4cccc(C(F)(F)F)c4)c(Cl)c3)c21
Result: 0

----------
system: PCTK2; construct: gene CDK17; conditions: concentration: 1 μM,replicates: in singlicate; n = 1
Parameter %Inh: see the listing below.
Entry rule: numbers only, all in %.

INSERT INTO results (compound, reported_value) VALUES
  ('O=C1NCCc2[nH]c(-c3ccncc3)cc21', 0),
  ('CC(=O)Nc1nc2cnc(Nc3cc(NC(=O)c4cccc(CC(C)(C)C#N)c4)ccc3C)nc2s1', 47),
  ('Cn1cc(-c2cccc3c(N)c(C(N)=O)nnc23)cn1', 2),
  ('CC(C)S(=O)(=O)N1CCN(Cc2ccc3c(c2)nc(NC(=O)c2ccsc2)n3C[C@H](O)c2ccccc2)CC1 [GW635815]', 0);

Now for a further compound.
Task: Identify measured %Inh associated with N#Cc1cccc(C(=O)NC2CCN(c3ccnc(Nc4ccc(F)cc4)n3)C2)c1 (centres unmarked) [GSK1379708]
Result: 0
